TEST_SYSTEM: S. aureus DltA (Staphylococcus aureus, UniProt Q2FZW6)
Sequence (Q2FZW6 1-485): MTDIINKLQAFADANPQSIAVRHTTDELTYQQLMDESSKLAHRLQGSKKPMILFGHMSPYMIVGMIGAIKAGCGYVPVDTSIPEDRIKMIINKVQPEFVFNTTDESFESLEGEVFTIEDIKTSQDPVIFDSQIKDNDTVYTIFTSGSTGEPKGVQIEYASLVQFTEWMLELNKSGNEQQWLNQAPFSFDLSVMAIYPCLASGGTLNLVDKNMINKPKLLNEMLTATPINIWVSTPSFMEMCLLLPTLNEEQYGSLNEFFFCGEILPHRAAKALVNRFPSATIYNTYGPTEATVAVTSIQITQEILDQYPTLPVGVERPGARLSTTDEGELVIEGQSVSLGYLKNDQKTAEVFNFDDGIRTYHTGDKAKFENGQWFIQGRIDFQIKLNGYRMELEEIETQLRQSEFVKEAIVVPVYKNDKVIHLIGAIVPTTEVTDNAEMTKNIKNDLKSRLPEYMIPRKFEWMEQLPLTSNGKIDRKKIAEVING
pIC50 by entry:
Notebook: values listed as pIC50 are -log10 of the concentration (mol/L).

Use these answered entries as a reference point.
CC1CCCC(n2cnc3cc(-c4sc(N5CC[C@H](CO)C5)c5c(=O)[nH]cnc45)ccc32)C1 (stereo partly shown) | 7.17
O=c1[nH]cnc2c1c(CCCO)cn2-c1ccc2c(c1)ncn2C1CCCCC1 | 5.96
O=c1[nH]cnc2c(-c3ccc4c(c3)ncn4C3CCCCC3)sc(N3CCC(CCO)C3)c12 (stereo not shown) | 6.85

Now consider the entry below.
Query the reported pIC50 for S. aureus DltA (Staphylococcus aureus, UniProt Q2FZW6); item: O=c1[nH]cnc2c(-c3ccc4c(c3)ncn4C3CCCCC3)cn(C3CCOCC3)c12
7.12
